Tested on: OVCAR-3 ovarian
Test: NCI tumour cell line growth inhibition, 48 h
// label = true (1) if TGI is not less than 20 µM, otherwise false (0)

| compound | target desc | assigned class |
| --- | --- | --- |
| CCOC(=O)CSc1cc(Cl)c(C)cc1S(=O)(=O)/N=C(/N=C/c1ccc([N+](=O)[O-])s1)NNC | OVCAR-3 ovarian | true (1) |
| COc1cc(CNCCCCCCN2C(=O)c3cccc4cccc(c34)C2=O)ccc1O | OVCAR-3 ovarian | false (0) |
| O=C/C(=C1/C=Cc2cc([N+](=O)[O-])ccc2S1)c1ccccc1 | OVCAR-3 ovarian | true (1) |
| COC(=O)c1ccc2c(c1)CC1(C2)Cc2cc3c(cc2C1)CCC3 | OVCAR-3 ovarian | true (1) |
| N#CCCn1[nH]c(=O)c(Cl)c(Cl)c1=O | OVCAR-3 ovarian | true (1) |
| O=S(O)CCCCCSSc1ccccc1 | OVCAR-3 ovarian | true (1) |
| O=[N+]([O-])C(=C/c1ccccc1)/C(=C\c1ccccc1)[N+](=O)[O-] | OVCAR-3 ovarian | true (1) |
| COc1cc(OC2OC(CO)C(O)C(O)C2O)c2c(O)c3c(=O)cc(C)oc3cc2c1 (stereo unspecified) | OVCAR-3 ovarian | true (1) |
| COc1ccccc1NC(=O)C1=C(C)NC(C)=C(C(=O)Nc2ccccc2OC)C1c1ccccc1[N+](=O)[O-] | OVCAR-3 ovarian | true (1) |
| C=C1CC(C)(COc2ccc3c(C)c(Cl)c(=O)oc3c2)OC1=O (stereo unspecified) | OVCAR-3 ovarian | false (0) |
| Oc1ccc(Br)cc1C=Nc1cccc(C(F)(F)F)c1 | OVCAR-3 ovarian | true (1) |
| COCC(C)(C)N=CN1Cc2cc3ccccc3nc2C1 | OVCAR-3 ovarian | true (1) |
| COC(=O)C(CC(C)C)NC(=O)C(NC(=O)c1ccc(-c2ccc(Cl)cc2Cl)o1)C(C)C (stereo unspecified) | OVCAR-3 ovarian | true (1) |
| COC(=O)C1CC2C=CC=CC(=O)C2(C)C1 (stereo unspecified) | OVCAR-3 ovarian | true (1) |
| COc1cc2oc(-c3cccc(C(=O)Nc4ccc(Cl)cc4)c3)cc(=O)c2c(OC)c1OC | OVCAR-3 ovarian | true (1) |
| [N-]=[N+]=Nc1ccccc1-c1ccccc1[N+](=O)[O-] | OVCAR-3 ovarian | true (1) |
| CC(C)=CCc1cc2c(cc1O)C1=C(C(=O)C3=C(C1=O)S(=O)(=O)CCN3)C(C=C(C)C)O2 (stereo unspecified) | OVCAR-3 ovarian | false (0) |
| CC1(C)C2CCC3CC(CCC#N)CCC3C21C#N (stereo unspecified) | OVCAR-3 ovarian | true (1) |
| NC(N)=N/N=C/c1c(-c2ccsc2)nc2n1CCS2 | OVCAR-3 ovarian | true (1) |
| N#CCn1c(=O)c(Oc2ccc(F)cc2F)cc2cnc(NC3CCOCC3)nc21 | OVCAR-3 ovarian | true (1) |
| Clc1nccc2c(-c3csc(-c4c[nH]c5ccc(Br)cc45)n3)c[nH]c12 | OVCAR-3 ovarian | false (0) |
| NC(=O)c1ccc2c(c1)-c1nc-2nc2[n-]c(nc3nc(nc4[n-]c(n1)c1ccc(C(N)=O)cc41)-c1ccc(C(N)=O)cc1-3)c1ccc(C(N)=O)cc21.[Co+2] | OVCAR-3 ovarian | true (1) |
| O=C(NCCN1CCCCC1)c1ccc(Br)cc1 | OVCAR-3 ovarian | true (1) |
| COc1cc2ccc3c4ccccc4cnc3c2cc1OC | OVCAR-3 ovarian | true (1) |
| CCCCC1=CSC(c2ccccc2)=C(c2ccccc2)S1 | OVCAR-3 ovarian | true (1) |
| CS(=O)(=O)N1CC(CCl)c2ccc(NO)cc21 (stereo unspecified) | OVCAR-3 ovarian | true (1) |
| CC1=C(c2nc3ccccc3s2)C(=O)OC1(C)C | OVCAR-3 ovarian | true (1) |
| NS(=O)(=O)c1ccc(Nc2cc(-c3ccc(O)c(F)c3)[nH]n2)cc1 | OVCAR-3 ovarian | true (1) |
| CC(=O)Nc1ccc(C(=O)CCl)cc1 | OVCAR-3 ovarian | false (0) |
| CSC1=NC(=Nc2c(C)cccc2C)C2(CCC(C(C)(C)C)CC2)N1c1ccc(Cl)cc1 (stereo unspecified) | OVCAR-3 ovarian | true (1) |
| O[C@]12C=C(c3nccc4c3[nH]c3ccccc34)[C@@H]3CCN(CCCC/C=C\CC1)C[C@@]31CC3/C=C\CCCCN3[C@H]12 (stereo partly specified) | OVCAR-3 ovarian | false (0) |
| Cc1c(C)c2c(c(N)c1C#N)C(=O)N(O)C2=O | OVCAR-3 ovarian | true (1) |
| COC1=C(N)C(=O)c2nc(-c3nc(C(=O)O)c(C)c(-c4ccc(OC)c(OC)c4O)c3N)ccc2C1=O | OVCAR-3 ovarian | false (0) |
| COc1ccc2[nH]c3c(c2c1)[C@H](c1ccccc1)C[C@@H]1C(=O)N(c2ccccc2)C(=O)[C@H]31 | OVCAR-3 ovarian | true (1) |
| CC(C)(O)/C1=C/C=C/CCCCCCCCCC1 | OVCAR-3 ovarian | true (1) |
| CCOC1OC(CO)C(O)CC1n1ccc(=O)[nH]c1=O (stereo unspecified) | OVCAR-3 ovarian | true (1) |
| COC(=O)C(=O)C(C(=O)OC)C(=O)C(=O)Nc1c(C)cccc1C (stereo unspecified) | OVCAR-3 ovarian | true (1) |
| CC(C)/C=C1\CCC(CN(C)C)C1=O (stereo unspecified) | OVCAR-3 ovarian | false (0) |
